As shown below, each of these compounds has a reported Ki value.
Biological target: cytochrome c oxidase (CcO) purified from bovine heart (Bos taurus, UniProt P00396+P68530)
Construct: Cytochrome oxidase was isolated from bovine heart mitochondria; from tissue; host or cells: bovine heart mitochondria
Assay: Cytochrome oxidase activity assay (oxygen uptake, Clark-type electrode; ascorbate + TMPD + cytochrome c)
Type: biochemical
Give just the number in µM; leave the unit off.

Ki measured on C[C@]12CC[C@H]3[C@@H](CCC4=CC(=O)CC[C@@]43C)[C@@H]1CC[C@@H]2O = 80

Others:
The value of Ki measured for the compound C[C@]12CC[C@H](O)CC1=CC[C@@H]1[C@@H]2CC[C@]2(C)C(=O)CC[C@@H]12 [Dehydroepiandrosterone (DHEA), Dehydroepiandrosterone] turned out to be 110

----------
Molecular target: cytochrome c oxidase (CcO) purified from bovine heart (Bos taurus, UniProt P00396+P68530)
Construct: Cytochrome oxidase was isolated from bovine heart mitochondria; from tissue; host or cells: bovine heart mitochondria
Test: Peroxidase activity of CcO (o-dianisidine peroxidation by H2O2)
Assay type: biochemical
Conditions: 0.2 mM o-dianisidine, 4 mM H2O2, 0.6 µM CcO
quantity-name: Inhibition of CcO Peroxidase Activity

Look over these answered cases.
I looked up CC(=O)[C@H]1CC[C@H]2[C@@H]3CCC4=CC(=O)CC[C@]4(C)[C@H]3CC[C@]12C [Progesterone] and its Inhibition of CcO Peroxidase Activity for cytochrome c oxidase (CcO) purified from bovine heart (Bos taurus, UniProt P00396+P68530) was no

Form: item C[C@]12CC[C@H](O)CC1=CC[C@@H]1[C@@H]2CC[C@]2(C)C(=O)CC[C@@H]12 [Dehydroepiandrosterone (DHEA), Dehydroepiandrosterone] ; test system cytochrome c oxidase (CcO) purified from bovine heart (Bos taurus, UniProt P00396+P68530); Inhibition of CcO Peroxidase Activity: no

The observed Inhibition of CcO Peroxidase Activity for C[C@]12CC[C@@H]3c4ccc(OC(=O)c5ccccc5)cc4CC[C@H]3[C@@H]1CC[C@@H]2O [estradiol-3-benzoate] when tested with cytochrome c oxidase (CcO) purified from bovine heart (Bos taurus, UniProt P00396+P68530) stands at no

Recorded Inhibition of CcO Peroxidase Activity for C[C@]12CC[C@H]3[C@@H](CCC4=CC(=O)CC[C@@]43C)[C@@H]1CC[C@@H]2O [Testosterone] on cytochrome c oxidase (CcO) purified from bovine heart (Bos taurus, UniProt P00396+P68530) was no

Now for another entry.
Given the compound C=C1CC[C@H](O)C/C1=C/C=C1\CCC[C@]2(C)[C@@H]([C@H](C)CCCC(C)C)CC[C@@H]12 [Cholecalciferol (vitamine D3), Cholecalciferol] and test system cytochrome c oxidase (CcO) purified from bovine heart (Bos taurus, UniProt P00396+P68530), the measured Inhibition of CcO Peroxidase Activity is yes

----------
Molecular target: cytochrome c oxidase (CcO) purified from bovine heart (Bos taurus, UniProt P00396+P68530)
Construct: Cytochrome oxidase was isolated from bovine heart mitochondria; from tissue; host or cells: bovine heart mitochondria
Test: Cytochrome oxidase activity assay (oxygen uptake, Clark-type electrode; ascorbate + TMPD + cytochrome c)
Type: biochemical
Conditions: from plot of Ki(app) for estradiol vs [DM], X-axis intercept; read-out: dissociation constant for DM in the absence of estradiol, Kc
quantity-name: Kd (µM)
Reply numerically in µM, unit not repeated.

// field: Kd; key: CCCCCCCCCCCCO[C@@H]1O[C@H](CO)[C@@H](O[C@H]2O[C@H](CO)[C@@H](O)[C@H](O)[C@H]2O)[C@H](O)[C@H]1O [DM, dodecyl-maltoside] ; value = 1470
